Cited source: ChEMBL document CHEMBL1201862

Test system: SF-539
Assay: NCI tumour cell line growth inhibition, 48 h
Activity calls are given as the source filed them. Cut-off read from the data, not from the text of the source: active = GI50 up to about 1.1 µM and inactive = higher.
Possible outcomes: true (active), false (inactive)

>>> df
                                   molecule  assigned_category
0  O=[N+]([O-])c1cc(C(F)(F)F)cc2c1SC1=Nc3ccccc3CN12              false
1  CN(C)Cc1cc(/N=N/c2ccccc2Cl)cc(CN(C)C)c1O              false
2  BrC(Br)=C1C(=C(Br)Br)C(Br)C1Br (stereo not drawn)               true

###

Some molecules, each annotated with its measured GI50.
Test system: Malme-3M
Experiment: NCI tumour cell line growth inhibition, 48 h
The source made the active and inactive calls. Cut-off read from the data, not from the text of the source: active = GI50 up to about 1.1 µM and inactive = higher.
measurement kind: GI50

>>> print(df.to_string())
                                    molecule  target_system             measured
 0  CCN(CC)CC[n+]1ccc2c(C)c3[nH]c4ccccc4c3c(C)c2c1       Malme-3M    0.662 µM (active)
 1  COc1ccc(NC(C)=O)cc1N1C(=O)/C(=C\c2cc(OC)c(OC)c(OC)c2)S(=O)(=O)C1c1ccccc1 (configuration not stated)       Malme-3M   78.3 µM (inactive)
 2  BrC(Br)=C1C(=C(Br)Br)C(Br)C1Br (configuration not stated)       Malme-3M    0.418 µM (active)
 3  Cc1c(Cl)cccc1NC(=O)C(=O)C(C(=O)c1ccccc1-c1ccccc1)C1OC(=O)c2ccccc21 (configuration not stated)       Malme-3M   12.7 µM (inactive)
 4                     O/N=C/c1ncccc1C1OCCO1       Malme-3M  > 100 µM (inactive)
 5    C(=C\C(SCc1ccccc1)SCc1ccccc1)/c1ccccc1       Malme-3M   > 10 µM (inactive)
 6      O=C(/C=C/c1ccc(O)c(O)c1O)OCCc1ccccc1       Malme-3M  > 100 µM (inactive)
 7  CCOC(=O)C(C(=O)OCC)c1ccc([N+](=O)[O-])o1       Malme-3M   6.73 µM (inactive)
 8  COC(=O)C1CCC(=O)N1C(c1ccc(OC)cc1)c1ccc2c(c1)OCO2 (configuration not stated)       Malme-3M   45.5 µM (inactive)
 9  CCC(=O)C12OC3OC(C)(C)OC3C1OC(C)(C)O2 (configuration not stated)       Malme-3M   9.44 µM (inactive)
10  CC(C)(C)[Si](C)(C)OC1(CCc2ccccc2OS(=O)(=O)C(F)(F)F)CCCC=C1COCc1ccccc1 (configuration not stated)       Malme-3M    0.202 µM (active)
11  COC(=O)C(/C(=N\O)C(=O)Nc1ccc(Br)cc1)c1nc2ccccc2nc1O (configuration not stated)       Malme-3M   45.1 µM (inactive)
12  COC1(OC)C2(Cl)C(Cl)=C(Cl)C1(Cl)C1COCC12 (configuration not stated)       Malme-3M  > 100 µM (inactive)
13  C=C1[C@H](OC(=O)C(C)C)[C@]23CC4(O)[C@@H]5[C@@]6(C)CCC[C@]57C([C@@H]2C[C@@]1(O)[C@H](O)[C@@H]73)N4C6       Malme-3M  > 100 µM (inactive)
14            OC(c1ccccc1)(c1ccccc1)c1cccnc1       Malme-3M  > 100 µM (inactive)
15     Nc1c(-c2ccccc2[N+](=O)[O-])nc2ccccn12       Malme-3M  > 100 µM (inactive)
16  COc1ccc2nc3cc([N+](=O)[O-])ccc3c(Nc3ccc(S(=O)(=O)Nc4ncccn4)cc3)c2c1       Malme-3M   48.3 µM (inactive)
